The values you see were collected from patent US8471005B2.

biological target: JAK2 (Homo sapiens); construct: host or cells: baculovirus expression system; assay: Recombinant Human JAK2 Kinase Assay (TRF); format: biochemical; conditions: JAK2 Kinase Inhibition; read-out: JAK2 Potency
Sequence (O60674 whole entry): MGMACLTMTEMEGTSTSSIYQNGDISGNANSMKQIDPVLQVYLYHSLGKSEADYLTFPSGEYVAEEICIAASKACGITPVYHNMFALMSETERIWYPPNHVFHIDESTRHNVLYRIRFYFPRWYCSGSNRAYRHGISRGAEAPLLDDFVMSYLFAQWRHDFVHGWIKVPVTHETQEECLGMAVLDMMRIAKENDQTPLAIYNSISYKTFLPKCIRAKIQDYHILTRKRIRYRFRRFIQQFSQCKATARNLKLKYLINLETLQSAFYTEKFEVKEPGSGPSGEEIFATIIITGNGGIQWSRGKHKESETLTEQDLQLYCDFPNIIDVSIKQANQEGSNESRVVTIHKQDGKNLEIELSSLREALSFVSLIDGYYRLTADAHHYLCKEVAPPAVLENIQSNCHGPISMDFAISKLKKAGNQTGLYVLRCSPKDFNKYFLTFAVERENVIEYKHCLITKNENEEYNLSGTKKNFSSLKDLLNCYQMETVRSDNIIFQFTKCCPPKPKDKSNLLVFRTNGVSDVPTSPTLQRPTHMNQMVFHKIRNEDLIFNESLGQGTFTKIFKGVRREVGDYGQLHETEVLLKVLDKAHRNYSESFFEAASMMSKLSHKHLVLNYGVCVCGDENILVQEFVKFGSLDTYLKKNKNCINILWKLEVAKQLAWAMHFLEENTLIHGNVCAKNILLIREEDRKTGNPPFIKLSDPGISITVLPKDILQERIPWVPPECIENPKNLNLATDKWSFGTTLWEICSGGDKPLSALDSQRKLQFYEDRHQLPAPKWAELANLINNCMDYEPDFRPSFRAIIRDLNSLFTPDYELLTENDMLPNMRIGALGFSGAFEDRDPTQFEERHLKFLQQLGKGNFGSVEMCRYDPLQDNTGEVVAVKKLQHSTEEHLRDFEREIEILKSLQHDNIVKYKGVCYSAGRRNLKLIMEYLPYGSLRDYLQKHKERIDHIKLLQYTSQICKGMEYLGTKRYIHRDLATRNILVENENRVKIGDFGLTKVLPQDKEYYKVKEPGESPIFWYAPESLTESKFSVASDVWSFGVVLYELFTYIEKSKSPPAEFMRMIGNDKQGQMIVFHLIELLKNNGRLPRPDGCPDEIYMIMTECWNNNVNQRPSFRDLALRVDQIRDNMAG
testReadout: IC50

# smilesData, assayResult
records = [
    ("CN1CCN(C(=O)c2ccc(Nc3ncc4ccc(-c5cccc(Cl)c5)n4n3)cc2)CC1", "< 100 nM"),
    ("CN(c1ccccc1-c1ccc2cnc(Nc3ccc(N4CCC(N5CCOCC5)CC4)cc3)nn12)S(C)(=O)=O", "< 100 nM"),
    ("c1cc(Nc2ncc3cccn3n2)cc(N2CCOCC2)c1", "100 to 1000 nM"),
]

Request: Any idea what IC50 was measured for `Cc1c(Nc2ncc3ccc(-c4ccccc4N(C)S(C)(=O)=O)n3n2)ccc2[nH]c(=O)oc12` ?
Result: 100 to 1000 nM

Request: Any idea what IC50 was measured for `COc1ccccc1-c1ccc2cnc(Nc3cccc(C4(O)CCNCC4)c3)nn12` ?
Result: < 100 nM

Request: Any idea what IC50 was measured for `COc1ccccc1-c1cc(Br)n2nc(Nc3ccc(N4CCN(C)CC4)cc3)ncc12` ?
Result: 1000 to 10000 nM

Request: Any idea what IC50 was measured for `COc1cc(N2CCC(CN3CCN(C)CC3)CC2)ccc1Nc1ncc2ccc(-c3ccccc3OC)n2n1` ?
Result: 100 to 1000 nM

Request: Any idea what IC50 was measured for `COc1cc(N2CCC(N3CCN(C)CC3)CC2)ccc1Nc1ncc2ccc(-c3ccccc3OC)n2n1` ?
Result: < 100 nM

====

target: ALK (Homo sapiens, UniProt Q9UM73); construct: host or cells: baculovirus expression system; assay: ALK Kinase Assay (ELISA/TRF, PLC-γ substrate); assay type: biochemical; details: ALK Kinase Inhibition; read-out: ALK Potency
Sequence (Q9UM73 19-1620): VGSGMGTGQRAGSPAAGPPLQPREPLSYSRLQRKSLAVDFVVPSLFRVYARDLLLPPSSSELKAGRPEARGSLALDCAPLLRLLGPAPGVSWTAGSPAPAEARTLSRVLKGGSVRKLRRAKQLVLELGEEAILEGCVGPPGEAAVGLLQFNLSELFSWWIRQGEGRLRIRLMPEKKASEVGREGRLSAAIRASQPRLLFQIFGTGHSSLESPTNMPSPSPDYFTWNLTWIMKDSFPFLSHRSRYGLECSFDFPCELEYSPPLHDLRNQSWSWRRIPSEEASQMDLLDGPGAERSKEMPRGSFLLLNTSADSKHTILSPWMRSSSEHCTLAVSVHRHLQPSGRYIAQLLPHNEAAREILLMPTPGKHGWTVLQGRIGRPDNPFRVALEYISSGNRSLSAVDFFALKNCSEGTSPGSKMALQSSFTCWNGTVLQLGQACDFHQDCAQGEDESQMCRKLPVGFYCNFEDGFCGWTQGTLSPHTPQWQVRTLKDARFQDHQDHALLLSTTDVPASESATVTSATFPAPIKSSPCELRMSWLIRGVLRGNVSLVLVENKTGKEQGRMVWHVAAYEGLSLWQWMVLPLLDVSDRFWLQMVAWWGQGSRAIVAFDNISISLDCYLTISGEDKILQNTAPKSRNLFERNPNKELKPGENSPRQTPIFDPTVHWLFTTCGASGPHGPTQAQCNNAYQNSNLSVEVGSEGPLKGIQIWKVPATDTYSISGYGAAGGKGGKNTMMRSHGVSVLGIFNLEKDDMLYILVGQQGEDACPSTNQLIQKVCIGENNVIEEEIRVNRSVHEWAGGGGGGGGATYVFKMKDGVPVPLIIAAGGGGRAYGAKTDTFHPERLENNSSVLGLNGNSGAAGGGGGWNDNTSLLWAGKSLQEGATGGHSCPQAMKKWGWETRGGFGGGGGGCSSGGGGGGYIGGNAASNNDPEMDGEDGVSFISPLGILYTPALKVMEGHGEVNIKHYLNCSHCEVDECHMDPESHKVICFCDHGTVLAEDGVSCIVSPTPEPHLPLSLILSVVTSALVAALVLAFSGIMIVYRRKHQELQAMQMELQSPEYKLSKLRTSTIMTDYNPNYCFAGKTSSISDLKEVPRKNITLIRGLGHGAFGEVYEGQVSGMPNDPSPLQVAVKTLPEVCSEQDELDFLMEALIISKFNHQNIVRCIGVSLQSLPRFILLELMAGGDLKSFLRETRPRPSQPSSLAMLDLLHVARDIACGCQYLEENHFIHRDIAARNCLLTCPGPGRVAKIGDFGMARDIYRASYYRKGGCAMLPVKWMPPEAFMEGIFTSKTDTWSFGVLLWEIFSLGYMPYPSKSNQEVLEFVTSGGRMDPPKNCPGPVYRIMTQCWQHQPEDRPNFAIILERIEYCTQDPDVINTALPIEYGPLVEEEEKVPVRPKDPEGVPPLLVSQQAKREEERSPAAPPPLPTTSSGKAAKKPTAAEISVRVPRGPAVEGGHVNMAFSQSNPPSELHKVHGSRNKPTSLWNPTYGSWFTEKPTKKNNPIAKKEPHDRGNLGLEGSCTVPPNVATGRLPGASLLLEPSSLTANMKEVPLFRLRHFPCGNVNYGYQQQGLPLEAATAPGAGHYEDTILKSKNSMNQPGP
pIC50: −log10 of the molar value.
pIC50 reference

In the examples that follow, each entry is paired with its recorded pIC50.
# molecule, pIC50
data = [
    ("COc1ccc(-c2ccc3cnc(Nc4cccc(C5CN(C)CCN5C)c4)nn23)cn1 (centres unmarked) [Example 1519]", "5.00 to 6.00"),
    ("CN1C(=O)Cc2cc(Nc3ncc4ccc(-c5ccccc5N(C)S(C)(=O)=O)n4n3)ccc21 [Example 375]", "6.00 to 7.00"),
    ("CS(=O)(=O)c1ccc(-c2ccc3cnc(Nc4ccc(C5CCNCC5)cc4)nn23)cc1 [Example 1571]", "6.00 to 7.00"),
    ("CN1CCN(c2cccc(Nc3ncc4ccc(-c5cccc(CO)c5)n4n3)c2)CC1 [Example 1557]", "> 7.00"),
]

Request: Any idea what pIC50 was measured for COCCN1CCc2ccc(Nc3ncc4ccc(-c5ccccc5OC)n4n3)cc2CC1 [Example 30] ?
Result: > 7.00

Request: Any idea what pIC50 was measured for CN(c1ccccc1-c1ccc2cnc(Nc3ccc(N4CCC(N5CCOCC5)CC4)cc3)nn12)S(C)(=O)=O [Example 1456] ?
Result: > 7.00

Request: Any idea what pIC50 was measured for COc1ccccc1-c1ccc2cnc(NC(=O)Nc3ccc(N4CCN(C)CC4)cc3)nn12 [Example 449] ?
Result: 6.00 to 7.00

Request: Any idea what pIC50 was measured for COCCOc1ncc2ccc(-c3cc(Cl)ccc3OC)n2n1 [Example 191] ?
Result: < 5.00

Request: Any idea what pIC50 was measured for COc1cc(C2CCN(CC(N)=O)CC2)ccc1Nc1ncc2ccc(-c3ncccc3OC)n2n1 [Example 1532] ?
Result: 5.00 to 6.00

Request: Any idea what pIC50 was measured for CC(C)S(=O)(=O)c1ccc(-c2ccc3cnc(Nc4ccc(N5CCOCC5)cc4)nn23)cc1 [Example 199] ?
Result: 5.00 to 6.00

Request: Any idea what pIC50 was measured for COc1ccccc1-c1ccc2cnc(Nc3ccc(N4CCC(N5CCOCC5)CC4)cc3)nn12 [Example 334] ?
Result: > 7.00
